# procedure_text: UV absorption of quinoline chromophores in KMOPS buffer
# Format: physicochemical
# cond: pH 7.2
measurement_type: λmax (nm)

| item_smiles | measurement_type | unit_string | reported_value |
| --- | --- | --- | --- |
| CC(=O)OCc1ccc2ccc(O)c(C#N)c2n1 | λmax | nm | 364 |
| CC(=O)OCc1cc(Cl)c2ccc(N(C)C)cc2n1 | λmax | nm | 386 |
| CC(=O)OCc1ccc2ccc(O)c([N+](=O)[O-])c2n1 | λmax | nm | 350 |
| CC(=O)OCc1ccc2ccc(O)c(Cl)c2n1 | λmax | nm | 370 |
| CC(=O)OCc1ccc2ccc(N(C)C)cc2n1 | λmax | nm | 368 |

---

# procedure_text: Dark hydrolysis rate / stability in the dark
# Assay type: physicochemical
# cond: KMOPS, pH 7.2, dark
measurement_type: τdark (time constant for hydrolysis in the dark) (h)

| compound | unit_string | reported_value |
| --- | --- | --- |
| CC(=O)OCc1ccc2ccc(N(C)C)cc2n1 [DMAQ-OAc (2a)] | h | 31 |

I = CC(=O)OCc1cc(Cl)c2ccc(N(C)C)cc2n1 [DMAQ-Cl—OAc (2b)]
II = CC(=O)OCc1ccc2ccc(O)c(C#N)c2n1 [CyHQ-OAc (1b)]
III = CC(=O)OCc1ccc2ccc(O)c([N+](=O)[O-])c2n1 [NHQ-OAc (1a)]
IV = CC(=O)OCc1ccc2ccc(O)c(Cl)c2n1 [CHQ-OAc (1c)]
Which order do these items take when sorted by rising τdark (time constant for hydrolysis in the dark)? List them. # list labels per requested ordering I, IV, III, II

---

# procedure_text: Fluorescence spectra of quinoline chromophores in KMOPS
# Assay type: physicochemical
# cond: pH 7.2, excitation 365 nm
measurement_type: λem (nm)

| compound | unit_string | reported_value |
| --- | --- | --- |
| CC(=O)OCc1ccc2ccc(O)c(C#N)c2n1 [CyHQ-OAc (1b)] | nm | 436 |
| CC(=O)OCc1ccc2ccc(N(C)C)cc2n1 [DMAQ-OAc (2a)] | nm | 496 |
| CC(=O)OCc1ccc2ccc(O)c(Br)c2n1 [BHQ-OAc] | nm | 478 |
| CC(=O)OCc1cc(Cl)c2ccc(N(C)C)cc2n1 [DMAQ-Cl—OAc (2b)] | nm | 493 |
| CC(=O)OCc1ccc2ccc(O)c(Cl)c2n1 [CHQ-OAc (1c)] | nm | 492 |

---

# procedure_text: Quantum efficiency for one-photon photolysis (365 nm, HPLC)
# Type: physicochemical
# cond: KMOPS, pH 7.2; measured at 365 nm
measurement_type: Qu (one-photon uncaging quantum efficiency)

See these solved cases before continuing.
| item_smiles | reported_value |
| --- | --- |
| CC(=O)OCc1ccc2ccc(O)c(Cl)c2n1 | 0.10 |
| CC(=O)OCc1ccc2ccc(O)c(C#N)c2n1 | 0.31 |

P = CC(=O)OCc1ccc2ccc(N(C)C)cc2n1
Q = CC(=O)OCc1ccc2ccc(O)c([N+](=O)[O-])c2n1
R = CC(=O)OCc1cc(Cl)c2ccc(N(C)C)cc2n1
I would appreciate it if you could sort these 3 compounds by Qu (one-photon uncaging quantum efficiency), starting from the smallest number. A ranking is expressed here by listing the labels in the requested order. Q, P, R
